These data points were gathered from paper PMC5025780.

- study_target: human 20S proteasome (hCP), ChT-L activity
- Construct: purchased Boston Biochem (Cambridge, MA, USA)
- test_details: ChT-L peptidase activity of isolated hCP (Suc-LLVY-AMC fluorogenic substrate)
- Assay type: biochemical
- experimental_context: hCP 2 nM, 1 h preincubation with ions, Tris 25 mM pH 7.6, 37 °C, no SDS; read-out: IC50 ChT-L
- Text: Purified human 20S proteasome (hCP) and the fluorogenic substrates Suc-LLVY-AMC, Z-Leu-Leu-Glu-AMC, and Ac-Arg-Leu-Arg-AMC used to assay the ChT-L, T-L, and C-L activity, were from Boston Biochem (Cambridge, MA, USA). Bathocuproinedisulfonic acid disodium salt (BCS), dithiothreitol (DTT), N-Acetyl-L-Cysteine (NAC), Sodium dodecylsulphate (SDS) as well as CuCl2 and Zn(NO3)2 were from Sigma-Aldrich (St. Louis, MO). Proteasome inhibitors Epoxomicin were obtained from Enzo Life Science. […]
pIC50 listing for selected compounds.
// pIC50: -log10(molar conc.)

compound | study_target | experimental_endpoint | obs_value
[Cl][Cu][Cl] | human 20S proteasome (hCP), ChT-L activity | pIC50 | 5.92

From here, focus on the item given below.
Prompt: What pIC50 appears in the records for this compound with human 20S proteasome (hCP), ChT-L activity? O=[N+]([O-])[O-].O=[N+]([O-])[O-].[Zn+2] [Zn(II), Zn(NO3)2, reference compound]
Completion: 5.22

* * *

- study_target: human 20S proteasome (hCP), ChT-L activity
- Construct: purchased Boston Biochem (Cambridge, MA, USA)
- test_details: ChT-L peptidase activity of isolated hCP (Suc-LLVY-AMC fluorogenic substrate)
- Format: biochemical
- experimental_context: in the presence of 0.018% SDS, other conditions unmodified; read-out: IC50 ChT-L, Cu(II) + SDS
experimental_endpoint: pIC50
// pIC50: -log10(molar conc.)

Prompt: Given [Cl][Cu][Cl] , state its recorded pIC50.
Completion: 6.14

* * *

IC50 listing for selected molecules.
- study_target: human 20S proteasome (hCP), C-L activity
- Construct: purchased Boston Biochem (Cambridge, MA, USA)
- test_details: C-L peptidase activity of isolated hCP (fluorogenic substrate)
- Format: biochemical
- experimental_context: hCP 2 nM, 1 h preincubation with ions, Tris 25 mM pH 7.6, 37 °C, no SDS; read-out: IC50 C-L

Prompt: Given O=[N+]([O-])[O-].O=[N+]([O-])[O-].[Zn+2] [Zn(II), Zn(NO3)2, reference compound] , state its recorded IC50.
Completion: 5.84 µM

Prompt: Given [Cl][Cu][Cl] [Cu(II), CuCl2] , state its recorded IC50.
Completion: 1.01 µM

* * *

IC50 listing for selected compounds.
- study_target: human 20S proteasome (hCP), T-L activity
- Construct: purchased Boston Biochem (Cambridge, MA, USA)
- test_details: T-L peptidase activity of isolated hCP (fluorogenic substrate)
- Assay type: biochemical
- experimental_context: hCP 2 nM, 1 h preincubation with ions, Tris 25 mM pH 7.6, 37 °C, no SDS; read-out: IC50 T-L
Value expressed in nM; do not type the unit.

compound | measure_unit | IC50
[Cl][Cu][Cl] | nM | 1450

From here, focus on the item given below.
Prompt: Given O=[N+]([O-])[O-].O=[N+]([O-])[O-].[Zn+2] [Zn(II), Zn(NO3)2, reference compound] , state its recorded IC50.
Completion: 4160
